Origin of measurements: patent US8367815B2

- Tested on: EGFP
- run conditions: ratio of GFP(%) at high (3 mM) and low (1 μM) theophylline concentrations
- Experimental: The functionality of shRNA switches was assessed in mammalian cell culture. […] In this example, Applicants systematically evaluated the tuning capabilities of shRNA switches with the aid of a mathematical model relating ligand concentration and target gene expression levels. […] Cell fluorescence analysis. […] Cells were first gated twice for (1) viability as assessed by electronic volume (EV) versus side scatter (SS) and (2) green fluorescence above autofluorescence to remove a nonfluorescent subpopulation.
Rule: η (dynamic range) below 3 gives true (1), anything at or above gives false (0).

Solved entries (count: 5):
substance="S23: EGFP shRNA switch, smaller theophylline aptamer; Table I (pCS1061) (CTCGAGATACCAGCCGAAAGGCCCTTGGCAGCTCGAGCTGATCCTGCTAGA)" assigned_label="false (0)"
substance="S20: EGFP shRNA switch, smaller theophylline aptamer; Table I (pCS1002) (CTCGAGATACCAGCCGAAAGGCCCTTGGCAGCTCGGGCTGACCCTGAAGCTAGA)" assigned_label="true (1)"
substance="S17: EGFP shRNA switch, smaller theophylline aptamer; Table I (pCS941) (CTCGAGATACCAGCCGAAAGGCCCTTGGCAGCTCGAGCTGACCCTGCTAGA)" assigned_label="false (0)"
substance="S11: EGFP shRNA switch with theophylline aptamer variant (shorter aptamer stem); Table I (pCS634) (CTCGAGATACCAGCCGAAAGGCCCTTGGCAGCTCGGGCTGACCCTGACTAGA)" assigned_label="false (0)"
substance="S22: EGFP shRNA switch, smaller theophylline aptamer; Table I (pCS1004) (CTCGATACCAGCCGAAAGGCCCTTGGCAGCGAGCTGACCCTGAACTAGA)" assigned_label="true (1)"

(Q) Problem: For the substance S12: EGFP shRNA switch with theophylline aptamer variant (shorter aptamer stem); Table I (pCS635) (CTCGAGATACCACCGAAAGGCCTTGGCAGCTCGGGCTGACCCTGACTAGA) , is η (dynamic range) under 3?
(A) false (0)

###

- Test system: EGFP
- run conditions: GFP(%): median green fluorescence of transfected vs untransfected cells in same well, without ligand, HEK293T tTA-d2EGFP
Rule: measured Basal expression levels (%) below 40% gets met; anything equal to or greater than 40% gets not met.

Check out these entries, answers already filled in.
substance="S16: EGFP shRNA switch, smaller theophylline aptamer; Table I (pCS910) (CTCGATACCAGCCGAAAGGCCCTTGGCAGCGAGCTGACCCTGACTAGA)" assigned_label=met
substance="S20: EGFP shRNA switch, smaller theophylline aptamer; Table I (pCS1002) (CTCGAGATACCAGCCGAAAGGCCCTTGGCAGCTCGGGCTGACCCTGAAGCTAGA)" assigned_label="not met"
substance="S24: EGFP shRNA switch, smaller theophylline aptamer; Table I (PCS1062) (CTCGAGATACCAGCCGAAAGGCCCTTGGCAGCTCGGGCTGATCCTGCTAGA)" assigned_label=met
substance="S17: EGFP shRNA switch, smaller theophylline aptamer; Table I (pCS941) (CTCGAGATACCAGCCGAAAGGCCCTTGGCAGCTCGAGCTGACCCTGCTAGA)" assigned_label=met

Then this substance:
(Q) Identify whether the substance S19: EGFP shRNA switch, smaller theophylline aptamer; Table I (pCS1001) (CTCGAGATACCAGCCGAAAGGCCCTTGGCAGCTCGGGCTGACCCTGAACTAGA) records Basal expression levels (%) below 40%.
(A) met
